Hi there, I'd appreciate the recorded IC50 for every entry that follows.
- MEASUREMENT TARGET: HLA B*1501 (Homo sapiens, UniProt P01889, A329T/A93T/A95T/C349S/D201E/D98Y/E187L/E204Q/E69M/E70A/K202T/N87E/Q94N/R155S/R180W/S121R/S35A/S48A/V306I/V36M/Y140S/Y91S)
- ASSAY COMMENT: biochemical
Where a SMILES comes first, the peptide text is derived from it.
Numbers only, in nM.

Return reported IC50; argument: CSCC[C@H](NC(=O)[C@@H](N)CCCNC(=N)N)C(=O)N[C@@H](CC(N)=O)C(=O)N[C@H](C(=O)N[C@@H](Cc1ccccc1)C(=O)N[C@@H](CC(N)=O)C(=O)NCC(=O)N[C@@H](Cc1c[nH]cn1)C(=O)N[C@@H](CC(C)C)C(=O)O)C(C)C [3102.0797] (H-RMNVFNGHL-OH) 28

What does the record list as IC50 for CC[C@H](C)[C@H](NC(=O)[C@H](CO)NC(=O)[C@H](CO)NC(=O)[C@H](CCCCN)NC(=O)[C@@H](NC(=O)[C@@H](N)CC(C)C)C(C)C)C(=O)N[C@@H](CC(C)C)C(=O)N[C@H](C(=O)N[C@@H](CC(C)C)C(=O)O)[C@@H](C)O [3102.0793] (H-LVKSSILTL-OH) ? 3.1

Return reported IC50; argument: CC(C)C[C@H](NC(=O)[C@H](Cc1ccccc1)NC(=O)[C@H](Cc1c[nH]c2ccccc12)NC(=O)[C@H](CC(C)C)NC(=O)[C@@H](N)CC(C)C)C(=O)N[C@H](C(=O)NCC(=O)N[C@H](C(=O)N[C@@H](Cc1ccccc1)C(=O)O)[C@@H](C)O)[C@@H](C)O [3102.1045] (H-LLWFLTGTF-OH) 0.78

Looking for the measured IC50 of CC[C@H](C)[C@H](NC(=O)[C@@H](NC(=O)[C@@H](N)CCCCN)[C@@H](C)O)C(=O)N[C@@H](Cc1ccc(O)cc1)C(=O)N[C@@H](C)C(=O)N[C@H](C(=O)N[C@@H](CC(=O)O)C(=O)N[C@@H](CO)C(=O)N[C@@H](Cc1ccccc1)C(=O)O)C(C)C [3102.0340] (H-KTIYAVDSF-OH) , can you help? 4

Please give the measured IC50 for this compound: CC[C@H](C)[C@H](NC(=O)[C@@H](NC(=O)[C@@H](N)CO)[C@@H](C)CC)C(=O)N[C@@H](CO)C(=O)N[C@@H](CC(C)C)C(=O)N[C@@H](Cc1ccccc1)C(=O)N[C@@H](Cc1ccc(O)cc1)C(=O)N[C@H](C(=O)N[C@@H](Cc1ccccc1)C(=O)O)[C@@H](C)O [3102.0919] (H-SIISLFYTF-OH) 1.4

Would you mind listing IC50 for each of the following compounds?
1. CC[C@H](C)[C@H](NC(=O)[C@H](CCC(=O)O)NC(=O)[C@H](CS)NC(=O)[C@H](CCCNC(=N)N)NC(=O)[C@@H](NC(=O)[C@@H](N)CCCCN)[C@@H](C)CC)C(=O)N[C@H](C(=O)N[C@@H](CO)C(=O)N[C@@H](Cc1ccccc1)C(=O)O)[C@@H](C)O [3102.0909] (H-KIRCEITSF-OH)
2. CC(C)C[C@H](NC(=O)[C@H](C)NC(=O)[C@@H](NC(=O)[C@H](Cc1ccccc1)NC(=O)[C@H](CS)NC(=O)[C@H](Cc1ccccc1)NC(=O)[C@H](Cc1ccc(O)cc1)NC(=O)[C@@H](NC(=O)[C@@H](N)CC(C)C)[C@@H](C)O)C(C)C)C(=O)O [3102.1028] (H-LTYFCFVAL-OH)
3. CC[C@H](C)[C@H](NC(=O)[C@H](CO)NC(=O)[C@H](CC(C)C)NC(=O)[C@H](CC(C)C)NC(=O)[C@@H](N)CC(C)C)C(=O)N[C@@H](CC(N)=O)C(=O)N[C@@H](CO)C(=O)N[C@@H](CO)C(=O)N[C@@H](Cc1ccccc1)C(=O)O [3102.1035] (H-LLLSINSSF-OH)
4. CC[C@H](C)[C@H](NC(=O)[C@H](CC(C)C)NC(=O)[C@H](CC(=O)O)NC(=O)[C@H](CCCNC(=N)N)NC(=O)[C@H](CCSC)NC(=O)[C@@H](N)CC(N)=O)C(=O)N[C@H](C(=O)N[C@H](C(=O)N[C@@H](Cc1ccccc1)C(=O)O)[C@@H](C)O)C(C)C [3102.0975] (H-NMRDLIVTF-OH)
5. CC(C)C[C@H](NC(=O)[C@@H](NC(=O)[C@@H](NC(=O)[C@H](CO)NC(=O)[C@H](CC(N)=O)NC(=O)[C@H](CCC(N)=O)NC(=O)[C@@H](N)CC(C)C)C(C)C)C(C)C)C(=O)N[C@@H](CCC(N)=O)C(=O)N[C@@H](Cc1ccccc1)C(=O)O [3102.1263] (H-LQNSVVLQF-OH)
6. CSCC[C@H](NC(=O)[C@@H](N)CO)C(=O)N[C@@H](CCCCN)C(=O)N[C@H](C(=O)N[C@H](C(=O)N[C@@H](Cc1ccccc1)C(=O)N[C@@H](CCC(N)=O)C(=O)N[C@H](C(=O)N[C@@H](Cc1ccccc1)C(=O)O)C(C)C)C(C)C)[C@@H](C)O [3102.1083] (H-SMKTVFQVF-OH)
7. CC[C@H](C)[C@H](NC(=O)[C@@H](N)Cc1ccccc1)C(=O)N[C@@H](CC(N)=O)C(=O)N[C@@H](CO)C(=O)N[C@H](C(=O)N[C@@H](CS)C(=O)N[C@@H](Cc1ccc(O)cc1)C(=O)N[C@H](C(=O)N[C@@H](Cc1ccccc1)C(=O)O)C(C)C)[C@@H](C)O [3102.0986] (H-FINSTCYVF-OH)
8. CC[C@H](C)[C@H](NC(=O)[C@H](C)NC(=O)[C@H](CCSC)NC(=O)[C@@H](NC(=O)[C@@H](NC(=O)[C@@H](N)C(C)C)[C@@H](C)CC)[C@@H](C)CC)C(=O)N[C@@H](CC(N)=O)C(=O)N[C@H](C(=O)N[C@@H](Cc1ccccc1)C(=O)O)C(C)C [3102.1303] (H-VIIMAINVF-OH)

4.3
29
0.88
8.3
1.5
1.6
4.3
26

----------
- MEASUREMENT TARGET: HLA A*3201 (Homo sapiens, UniProt P04439, A270S/D101S/D185E/E176V/E277Q/F133L/G103R/G107R/G231S/H175R/I121M/I218V/I322F/K168Q/L105A/L300P/L318F/M331R/P208A/P217A/Q94H/R106L/R138Q/S129P/T104I/T323A/T345S/V100E/V321M/V358M)
- ASSAY COMMENT: biochemical
- Type: binding
Where a SMILES comes first, the peptide text is derived from it.
So I've got a bunch of molecules here, and I need their pIC50 values.
One number for each entry, as −log10 of the molar value.

Quick one: pIC50 of CC[C@H](C)[C@H](NC(=O)[C@@H](NC(=O)[C@@H](N)CCCCN)[C@@H](C)O)C(=O)N[C@@H](C)C(=O)N[C@@H](CCCNC(=N)N)C(=O)N[C@@H](Cc1ccccc1)C(=O)N[C@H](C(=O)N[C@@H](Cc1ccc(O)cc1)C(=O)N[C@@H](Cc1ccccc1)C(=O)O)[C@@H](C)O [3102.1031] (H-KTIARFTYF-OH) ? 7.02

I have this molecule here, CC[C@H](C)[C@H](NC(=O)[C@@H](NC(=O)[C@H](Cc1ccccc1)NC(=O)[C@H](CC(C)C)NC(=O)[C@H](Cc1ccccc1)NC(=O)[C@@H](NC(=O)[C@@H](NC(=O)[C@H](CC(C)C)NC(=O)[C@@H](N)CCCCN)[C@@H](C)CC)[C@@H](C)O)C(C)C)C(=O)O [3102.0370] (H-KLITFLFVI-OH) , and I need its recorded pIC50. 9.39

Quick one: pIC50 of CC[C@H](C)[C@H](NC(=O)[C@H](CC(C)C)NC(=O)[C@@H](NC(=O)[C@H](CC(N)=O)NC(=O)[C@H](CC(N)=O)NC(=O)[C@H](CO)NC(=O)[C@H](Cc1ccccc1)NC(=O)[C@H](CCSC)NC(=O)[C@@H](N)CCCCN)C(C)C)C(=O)O [3102.0427] (H-KMFSNNVLI-OH) ? 8.96

Recorded pIC50 for CC[C@H](C)[C@H](NC(=O)[C@@H](NC(=O)[C@@H](N)CCCCN)[C@@H](C)O)C(=O)N[C@@H](Cc1ccc(O)cc1)C(=O)N[C@@H](CC(C)C)C(=O)N[C@@H](CC(C)C)C(=O)N[C@@H](CO)C(=O)N[C@@H](CC(C)C)C(=O)N[C@@H](Cc1ccccc1)C(=O)O [3102.0490] (H-KTIYLLSLF-OH) , please? 8.00

Looking for the measured pIC50 of CC[C@H](C)[C@H](NC(=O)[C@H](CO)NC(=O)[C@@H](N)CCSC)C(=O)N[C@@H](CCSC)C(=O)N1CCC[C@H]1C(=O)N[C@H](C(=O)N[C@@H](CC(C)C)C(=O)N[C@@H](C)C(=O)N[C@@H](Cc1ccc(O)cc1)C(=O)O)C(C)C [3102.0858] (H-MSIMPVLAY-OH) , can you help? 7.00

For every item below, please supply its pIC50.
1. CC[C@H](C)[C@H](NC(=O)[C@@H](NC(=O)[C@H](CC(C)C)NC(=O)[C@H](CC(C)C)NC(=O)[C@H](CC(N)=O)NC(=O)[C@H](Cc1ccc(O)cc1)NC(=O)[C@H](CCSC)NC(=O)[C@H](CC(C)C)NC(=O)[C@@H](N)CC(C)C)[C@@H](C)O)C(=O)O [3102.0454] (H-LLMYNLLTI-OH)
2. CC[C@H](C)[C@H](N)C(=O)N[C@@H](CCSC)C(=O)N[C@@H](Cc1ccccc1)C(=O)N[C@@H](CO)C(=O)N[C@@H](CCCCN)C(=O)N[C@@H](CO)C(=O)N[C@@H](CC(C)C)C(=O)N[C@@H](CC(N)=O)C(=O)N[C@@H](Cc1ccccc1)C(=O)O [3102.1204] (H-IMFSKSLNF-OH)
3. CC[C@H](C)[C@H](NC(=O)[C@@H](NC(=O)[C@H](CC(N)=O)NC(=O)[C@H](Cc1ccccc1)NC(=O)[C@H](Cc1ccccc1)NC(=O)[C@@H](NC(=O)[C@@H](NC(=O)[C@@H](NC(=O)[C@@H](N)CCCCN)C(C)C)C(C)C)[C@@H](C)CC)[C@@H](C)O)C(=O)O [3102.0430] (H-KVVIFFNTI-OH)
4. CC[C@H](C)[C@H](NC(=O)[C@@H](NC(=O)[C@@H](N)CCCCN)[C@@H](C)O)C(=O)N[C@@H](Cc1ccc(O)cc1)C(=O)N[C@@H](C)C(=O)N[C@H](C(=O)N[C@@H](CC(=O)O)C(=O)N[C@@H](CO)C(=O)N[C@@H](Cc1ccccc1)C(=O)O)C(C)C [3102.0340] (H-KTIYAVDSF-OH)
5. CSCC[C@H](NC(=O)[C@H](C)NC(=O)[C@@H](N)CC(C)C)C(=O)N[C@@H](CC(N)=O)C(=O)N[C@@H](CO)C(=O)N[C@H](C(=O)N[C@@H](Cc1ccccc1)C(=O)N[C@H](C(=O)N[C@@H](Cc1ccccc1)C(=O)O)[C@@H](C)O)C(C)C [3102.0426] (H-LAMNSVFTF-OH)
6. CC[C@H](C)[C@H](NC(=O)[C@H](CCCNC(=N)N)NC(=O)[C@H](CCC(N)=O)NC(=O)[C@H](C)NC(=O)[C@@H](NC(=O)[C@H](CC(N)=O)NC(=O)[C@H](Cc1ccccc1)NC(=O)[C@H](CC(C)C)NC(=O)[C@@H](N)CCCCN)[C@@H](C)CC)C(=O)O [3102.0323] (H-KLFNIAQRI-OH)
7. CC[C@H](C)[C@H](NC(=O)[C@H](CC(N)=O)NC(=O)[C@H](Cc1ccccc1)NC(=O)[C@@H](NC(=O)[C@H](CCCCN)NC(=O)[C@H](Cc1ccccc1)NC(=O)[C@H](CC(N)=O)NC(=O)[C@@H](NC(=O)[C@H](C)N)[C@@H](C)CC)[C@@H](C)CC)C(=O)O [3102.0489] (H-AINFKIFNI-OH)
8. CC[C@H](C)[C@H](NC(=O)[C@@H](NC(=O)[C@H](CC(C)C)NC(=O)[C@H](C)NC(=O)[C@@H](NC(=O)[C@@H](NC(=O)[C@@H](NC(=O)[C@@H](NC(=O)[C@@H](N)Cc1c[nH]cn1)[C@@H](C)CC)[C@@H](C)CC)[C@@H](C)CC)C(C)C)[C@@H](C)O)C(=O)O [3102.0368] (H-HIIIVALTI-OH)

7.14
7.82
8.08
8.17
7.80
8.80
7.66
7.10

The origin of these recorded values is paper PMC2248166.
